target: UniProtKB P33261; experiment: CYP2C19 inhibition (fluorescent substrate CEC); format: in vitro ADME; details: read-out: Cyp IC50 (μM) 2C19
Sequence (P33261 whole entry): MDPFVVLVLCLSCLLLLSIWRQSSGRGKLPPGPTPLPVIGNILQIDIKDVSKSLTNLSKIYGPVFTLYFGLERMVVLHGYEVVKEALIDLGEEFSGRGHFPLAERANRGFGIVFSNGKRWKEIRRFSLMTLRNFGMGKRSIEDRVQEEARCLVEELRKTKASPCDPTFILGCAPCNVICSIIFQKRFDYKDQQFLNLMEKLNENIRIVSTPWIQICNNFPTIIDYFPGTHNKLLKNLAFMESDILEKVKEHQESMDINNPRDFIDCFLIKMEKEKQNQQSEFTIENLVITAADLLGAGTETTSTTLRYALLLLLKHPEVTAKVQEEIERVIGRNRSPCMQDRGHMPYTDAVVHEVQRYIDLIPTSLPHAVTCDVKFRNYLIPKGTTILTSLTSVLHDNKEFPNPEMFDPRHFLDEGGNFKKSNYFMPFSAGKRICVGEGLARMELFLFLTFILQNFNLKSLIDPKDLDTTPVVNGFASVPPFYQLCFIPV
Listed here are compounds together with their documented IC50.
Assay endpoint: IC50

{"Compound structure string": "CCCS(=O)(=O)Nc1ccc(F)c(C(=O)c2c[nH]c3ncc(-c4ccc5ncsc5c4)cc23)c1F", "Test value": "5 to 10 µM"}
{"Compound structure string": "CCCS(=O)(=O)Nc1ccc(F)c(C(=O)c2c[nH]c3ncc(-c4ccc5nn(C)cc5c4)cc23)c1F", "Test value": "> 10 µM"}
{"Compound structure string": "CCCS(=O)(=O)Nc1ccc(F)c(C(=O)c2c[nH]c3ncc(-c4ccc5cn(C)nc5c4)cc23)c1F", "Test value": "> 10 µM"}
{"Compound structure string": "CCCS(=O)(=O)Nc1ccc(F)c(C(=O)c2c[nH]c3ncc(-c4cnn(C5CCN(C(=O)OC(C)(C)C)CC5)c4)cc23)c1F", "Test value": "5 to 10 µM"}
{"Compound structure string": "CCCS(=O)(=O)Nc1ccc(F)c(C(=O)c2c[nH]c3ncc(-c4ccc5ncccc5c4)cc23)c1F", "Test value": "> 10 µM"}
{"Compound structure string": "CCCS(=O)(=O)Nc1ccc(F)c(C(=O)c2c[nH]c3ncc(-c4cnn(C5CCNCC5)c4)cc23)c1F", "Test value": "> 10 µM"}
{"Compound structure string": "CC(=O)N(c1ccc(F)c(C(=O)c2cn(C(C)=O)c3ncc(-c4ccc5c(cnn5C(C)=O)c4)cc23)c1F)S(=O)(=O)c1cc(F)ccc1F", "Test value": "5 to 10 µM"}
